Reference source: PubChem BioAssay

- ASSAY: binders of probe aHhip on microarray, primary screen, stem cell growth factor project, biochemical, small-molecule microarray, fluorescence 635/667 (AID 1087);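 note: score merges spot fluorescence at 667nm with spot signal to noise ratio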
- EXPERIMENTAL PARAMETERS: higher = more signal
Decide using composite z-score: a value greater than or equal to 0.002 is y, a smaller one is n.

Example entries begin here.
COc1ccc([Si](C)(C)[C@H]2[C@H](CCn3cc(CCO)nn3)O[C@@]3(C(=O)N(Cc4ccc(N5C(=O)c6cccc7cccc5c67)cc4)c4ccccc43)[C@@H]2C)cc1: y
CCCC[C@@H]1C[C@H]1[C@@H](NC(=O)c1cccnc1)c1ccc(-c2ccccc2)cc1: n

Incoming: Hi team, for C=CCOC(=O)[C@@H]1[C@H]2C(=O)O[C@H](c3ccccc3)[C@H](c3ccccc3)N2[C@H](c2ccc(OCCOC(=O)[C@H]3C[C@H]4C(=O)N[C@@H](CCCCN(C)C)C(=O)N4[C@H]3c3cccc(OCCO)c3)cc2)[C@@]12C(=O)Nc1ccc(I)cc12 , is the recorded composite z-score at or above 0.002?
Outgoing: y

Incoming: Hi team, for COC(=O)C1(Cc2ccccc2)C=C2C(=C(c3ccccc3)C(=O)C2C)CN1 (stereo unspecified) , is the recorded composite z-score at or above 0.002?
Outgoing: y

Incoming: Hi team, for COc1ccc([Si](C)(C)[C@@H]2[C@@H](CCO)O[C@]3(C(=O)N(Cc4cccc(N5C(=O)c6cccc7cccc5c67)c4)c4ccccc43)[C@H]2C)cc1 , is the recorded composite z-score at or above 0.002?
Outgoing: n

Incoming: Hi team, for CN(C)CCCN1C(=O)[C@@]2(c3ccc([N+](=O)[O-])cc3)CC(=O)N(CC34CC5CC(CC(C5)C3)C4)[C@@H]2c2ccc(CO)cc21 , is the recorded composite z-score at or above 0.002?
Outgoing: y

====

A collection of compounds and their measured z-score
- ASSAY: HepG2 cell viability effects, profiling panel, calcein-AM fluorescence, 48 h, basal (AID 1164); note: test concentration not given here
- EXPERIMENTAL PARAMETERS: higher = more signal
Keep the answer to the number alone.

CO[C@H]1O[C@H](CO)[C@@H](OC(=O)c2ccc(Br)cc2)[C@@H]2OC(=O)[C@@H](Cc3ccc4ccccc4c3)C/C=C/C[C@H](Cc3ccc4ccccc4c3)C(=O)O[C@@H]12: 0.564

Incoming: Given the compound CC(C)(C)OC(=O)CC[C@]1(C(=O)N2CCOCC2)N=C(c2ccc(OCCCO)cc2)O[C@H]1c1ccccc1 , what is its reported z-score?
Outgoing: 1.01

Incoming: Given the compound CCOC(=O)[C@H]1C/C=C/C[C@H](C(=O)OCC)C(=O)O[C@H]2[C@@H](OC)O[C@H](CO)[C@@H](OC(=O)Nc3ccc(OC)cc3)[C@@H]2OC1=O , what is its reported z-score?
Outgoing: 1.12

Incoming: Given the compound O=C1OCC=C[C@H]2OC34C=CCN(c5ccc(Cl)cc5)C(=O)[C@H]3N(CCCCCO)C(=O)[C@@H]4[C@@H]12 (stereo partly specified) , what is its reported z-score?
Outgoing: -0.231

Incoming: Given the compound COc1ccc([Si](C)(C)[C@H]2[C@H](CCn3cc(CCO)nn3)O[C@@]3(C(=O)N(Cc4ccc(N5C(=O)c6cccc7cccc5c67)cc4)c4ccccc43)[C@@H]2C)cc1 , what is its reported z-score?
Outgoing: -4.11

Incoming: Given the compound COCCOC(=O)N1C(=O)[C@@]2(c3cc(C#CC4(O)CCCCCC4)ccc31)[C@H](C(N)=O)[C@H]1C(=O)O[C@H](c3ccccc3)[C@H](c3ccccc3)N1[C@@H]2c1ccccc1OCCO , what is its reported z-score?
Outgoing: -4.88
